Quick list: Polarity per entry.
experiment: Polarity: interfacial tension toward water; type: physicochemical; details: medium-polar lipids;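 also: polarity expressed as oil–water interfacial tension in mN/m, lower values meaning a more polar oil, with medium-polar lipids falling between 20 and 30 mN/m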
API: value field is a number in mN/m; no unit string.

Worked examples follow.
• CCCCCCCCCC(=O)OCCCC(C)C [Dermol IHD, Isohexyl decanoate] = 29.7
• CC(C)CCCCCCCOC(=O)CC(C)CC(C)(C)C (centres unmarked) [Dermol 109, Isodecyl 3,5,5 Trimethyl Hexanoate] = 29.1
• CCCCCCC(CCCC)C(=O)O (centres unmarked) = 22.1
• CCCCCCCCCCC(CO)CCCCCCCC (centres unmarked) = 24.8

// below: Polarity requested for another molecule
Problem: Could you tell me which Polarity is on file for CCCCCCCC(=O)OCCCCCCCC(C)C [Dermol 108, Isodecyl Octanoate] ?
Solution: 29.6
